Measured values drawn from patent US20080058213A1 for this set.

Tested on: southern crabgrass (Digitaria ciliaris)
Assay: Soil treatment test for upland field (Test Example 2): southern crabgrass
Assay type: in vivo
Settings: dose 5 g ai/a; soil treatment before germination; examined after 3 weeks
measurement.label: Herbicidal Effect southern crabgrass

Request: Reported Herbicidal Effect southern crabgrass for southern crabgrass (Digitaria ciliaris), given `CSCC(=Cc1cccc(C(F)(F)F)c1)c1nc2cc(C(F)(F)F)ccc2o1` ?
Response: 3 (60%-less than 80%)

Request: Same for `COCC(=Cc1ccc(F)c(C(F)(F)F)c1)c1nc2cc(F)c(F)cc2o1`
Response: 5 (100%)

Request: Same for `CCSCC(=Cc1cccc(C(F)(F)F)c1)c1nc2cc(C(F)(F)F)ccc2o1`
Response: 3 (60%-less than 80%)

Request: Same for `COCC(=Cc1cccc(C(F)(F)F)c1)c1nc2cc(Br)ccc2o1`
Response: 5 (100%)

Request: Same for `FC(F)C(F)(F)COCC(=Cc1cccc(C(F)(F)F)c1)c1nc2cc(C(F)(F)F)ccc2o1`
Response: 5 (100%)

Request: Same for `CCOCC(=Cc1cccc(C(F)(F)F)c1)c1nc2cc(F)c(C(F)(F)F)cc2o1`
Response: 5 (100%)

Request: Same for `COCC(=Cc1cccc(C(F)(F)F)c1)c1nc2cc(OC(F)(F)F)ccc2o1`
Response: 5 (100%)

Request: Same for `COCC(=Cc1ccc(Cl)c(C(F)(F)F)c1)c1nc2cc(Cl)ccc2o1`
Response: 5 (100%)
